biological target: HLA-A02.01 (Homo sapiens, UniProt P04439, D140Y/D185E/D98H/E176V/E277Q/G131W/G231S/I119V/I121R/I166T/I218V/L300P/L318F/N151K/N90K/P208A/P217A/Q86G/Q94H/R138H/R169H/T345S); assay: Class I MHC peptide binding affinity (displacement of radiolabeled reference peptide); conditions: allele A02.01; read-out: Observed Affinity (IC50; (nM))
reported-property: IC50 (nM)
API: value field is a number in nM; no unit string.

Incoming: Fill in the blank: the reported IC50 of LQMDFLVEIPA is ____.
Outgoing: 68

* * *

molecular target: HLA-A02.01 (Homo sapiens, UniProt P04439, D140Y/D185E/D98H/E176V/E277Q/G131W/G231S/I119V/I121R/I166T/I218V/N151K/N90K/P208A/P217A/Q86G/Q94H/R138H/R169H); construct: made in house; host or cells: E. coli; experiment: Class I MHC peptide binding stability (pMHC-I dissociation, 125I-labeled light chain); conditions: allele A02.01
Where a SMILES comes first, the peptide text is derived from it.
reported-property: Stability (T1/2 (h))
API: value field is a number in h; no unit string.

Incoming: Fill in the blank: the reported Stability (T1/2 (h)) of CC(C)C[C@H](NC(=O)[C@H](C)N)C(=O)N[C@@H](CO)C(=O)N[C@@H](C)C(=O)N[C@@H](CO)C(=O)N[C@@H](CC(N)=O)C(=O)N[C@@H](CO)C(=O)N[C@@H](CS)C(=O)N[C@@H](Cc1ccccc1)C(=O)O (H-ALSASNSCF-OH; N-terminus and C-terminus assumed) is ____.
Outgoing: 0.3

Incoming: Fill in the blank: the reported Stability (T1/2 (h)) of CC[C@H](C)[C@H](N)C(=O)N[C@@H](CC(C)C)C(=O)N[C@@H](CCSC)C(=O)N[C@@H](CCC(=O)O)C(=O)N[C@@H](CC(C)C)C(=O)N[C@@H](CCSC)C(=O)N[C@@H](C)C(=O)NCC(=O)NCC(=O)O (H-ILMELMAGG-OH; N-terminus and C-terminus assumed) is ____.
Outgoing: 0.5

Incoming: Fill in the blank: the reported Stability (T1/2 (h)) of CC(C)C[C@H](NC(=O)[C@H](CO)NC(=O)[C@H](CS)NC(=O)[C@H](CCC(=O)O)NC(=O)[C@H](Cc1c[nH]c2ccccc12)NC(=O)[C@H](CC(C)C)NC(=O)[C@H](C)NC(=O)[C@H](CC(C)C)NC(=O)[C@H](CC(C)C)NC(=O)[C@@H](N)Cc1ccccc1)C(=O)O is ____.
Outgoing: 10.8

Incoming: Fill in the blank: the reported Stability (T1/2 (h)) of CSCC[C@H](NC(=O)[C@H](CC(C)C)NC(=O)[C@H](CCC(N)=O)NC(=O)[C@@H](N)CCSC)C(=O)N1CCC[C@H]1C(=O)N[C@@H](Cc1ccccc1)C(=O)NCC(=O)N[C@@H](CS)C(=O)N[C@@H](CC(C)C)C(=O)N[C@@H](CC(C)C)C(=O)O is ____.
Outgoing: 0.4

Incoming: Fill in the blank: the reported Stability (T1/2 (h)) of CC[C@H](C)[C@H](NC(=O)[C@H](Cc1ccccc1)NC(=O)[C@H](CS)NC(=O)[C@H](CO)NC(=O)[C@H](CC(N)=O)NC(=O)[C@H](CO)NC(=O)[C@H](C)NC(=O)[C@H](CO)NC(=O)[C@H](CC(C)C)NC(=O)[C@H](C)N)C(=O)O (H-ALSASNSCFI-OH; N-terminus and C-terminus assumed) is ____.
Outgoing: 0.8

Incoming: Fill in the blank: the reported Stability (T1/2 (h)) of CC[C@H](C)[C@H](NC(=O)[C@@H](NC(=O)[C@H](CC(C)C)NC(=O)[C@@H](NC(=O)[C@@H]1CCCN1C(=O)[C@H](CCCNC(=N)N)NC(=O)[C@H](Cc1c[nH]c2ccccc12)NC(=O)[C@H](CC(N)=O)NC(=O)[C@H](CCSC)NC(=O)CN)[C@@H](C)CC)[C@@H](C)O)C(=O)O is ____.
Outgoing: 0.5

Incoming: Fill in the blank: the reported Stability (T1/2 (h)) of CSCC[C@H](NC(=O)[C@H](CCC(=O)O)NC(=O)[C@H](CC(C)C)NC(=O)[C@H](CC(C)C)NC(=O)[C@H](CC(C)C)NC(=O)[C@H](CC(=O)O)NC(=O)[C@H](CS)NC(=O)[C@H](CC(C)C)NC(=O)[C@@H]1CCCN1)C(=O)O (H-PLCDLLLEM-OH; N-terminus and C-terminus assumed) is ____.
Outgoing: 0.8

Values compiled from patent US20220282217A1.
